assay: in vitro; settings: human, hela cells, % viability
QUANTITY MEASURED: viability at 28.5 h, 10 µM (%)
Give your result in % as a bare value.

Form field viability at 28.5 h, 10 µM, entry O=C(Nc1cccc(F)c1)c1cc2ccccc2cc1O [CBK016863] : 102

Form: molecule = COc1ccc(-c2cc3ccc(OC(C)C(=O)O)cc3oc2=O)cc1 (stereo not shown) [CBK267947] ; viability at 28.5 h, 10 µM = 101

Lab note: O=C1C2(c3ccccc3)CN(CCCO)CC1(c1ccccc1)CN(CCCO)C2 [CBK265912] gave viability at 28.5 h, 10 µM of 109

Summary for this molecule, Cc1[nH]c2ccccc2c1C(=O)C(=O)Nc1sc(C)c(C)c1C#N [CBK270038] : viability at 28.5 h, 10 µM is 85.9

Quick note, viability at 28.5 h, 10 µM for O=C(C(CO)c1ccccc1)N1CCC2(CCN(CCCCOc3ccccc3)C2)C1 (stereo not shown) [CBK161722] landed at 90

Looking up COc1ccc(OC)c(NC(=O)CSc2nnc(-c3cccnc3)s2)c1 [CBK269043] , I found its viability at 28.5 h, 10 µM recorded as 78.3

Form: molecule = Clc1ccc(COc2nccnc2N2CCN(CCOc3ccccc3)CC2)cc1Cl [CBK083091T] ; viability at 28.5 h, 10 µM = 95.2

viability at 28.5 h, 10 µM in this record for OCC1CCCN1c1cncc(-c2ccc3ccccc3c2)n1 (stereo not shown) [CBK037197] : 104

Further cases:
The reported value for Cc1cc(N2CCN(c3ccc(O)cc3)CC2)n2nc(-c3nccn3C)cc2n1 [CBK286188] in terms of viability at 28.5 h, 10 µM is 91.2

Sample Cc1nnc(N/N=C\c2ccco2)n1N [CBK028824C] ; viability at 28.5 h, 10 µM observed: 97.4

Origin of the recorded values: paper PMC12040169
